Please provide measured Kd for the entries that follow.
target: T1, cynomolgus Gamma/Delta1A TCR-Fc fusion protein (cynomolgus monkey, biotinylated in vitro with recombinant BirA (AviTag)); assay: bead binding assay (TCR-Fc on streptavidin beads, IgG titrated, flow cytometry); apparent KD
T1 construct: First chain = delta, second = gamma; also called Cyno D1; cyno D1; not shown: Fc portion of mouse IgG, then AviTag and His6 tag at the C-terminus; Fc portion of mouse IgG
T1 sequence (chain, as listed by the source mutant, chain 1 of 2): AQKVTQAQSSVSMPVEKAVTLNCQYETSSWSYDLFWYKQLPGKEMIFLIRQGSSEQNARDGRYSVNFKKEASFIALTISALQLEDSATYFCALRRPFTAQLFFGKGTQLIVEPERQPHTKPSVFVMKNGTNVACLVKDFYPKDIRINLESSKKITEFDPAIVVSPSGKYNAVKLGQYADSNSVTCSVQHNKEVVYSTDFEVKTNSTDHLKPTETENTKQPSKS
T1 sequence (chain, as listed by the source mutant, chain 2 of 2): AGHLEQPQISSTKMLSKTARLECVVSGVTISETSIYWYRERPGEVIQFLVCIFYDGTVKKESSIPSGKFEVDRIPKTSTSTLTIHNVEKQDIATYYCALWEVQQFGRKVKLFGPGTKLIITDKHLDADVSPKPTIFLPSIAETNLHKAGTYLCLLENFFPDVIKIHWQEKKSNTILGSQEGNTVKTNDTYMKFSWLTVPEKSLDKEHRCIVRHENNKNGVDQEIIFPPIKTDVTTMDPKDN
Write down the numeric answer in nM and omit the unit.

// Kd lookup, key: Delta1-27 (antibody, V domains shown, Tested in the human IgG format) VH: EVQLVESGGGLVQPGGSLRLSCAASGFTVSSSSIHWVRQAPGKGLEWVASIYSSSGYTYYADSVKGRFTISADTSKNTAYLQMNSLRAEDTAVYYCARDPGSYYWYYSGSAYEGYGLDYWGQGTLVTVSS VL: DIQMTQSPSSLSASVGDRVTITCRASQSVSSAVAWYQQKPGKAPKLLIYAASSLQSGVPSRFSGSRSGTDFTLTISSLQPEDFATYYCQQSSRNSKLITFGQGTKVEIKR
0.78

Again, but for Delta1-20 (antibody, V domains shown, Tested in the human IgG format) VH: EVQLVESGGGLVQPGGSLRLSCAASGFTVSSSSIHWVRQAPGKGLEWVASIYSSSGYTYYADSVKGRFTISADTSKNTAYLQMNSLRAEDTAVYYCARDPGSYYWYYSGSAYEGYGLDYWGQGTLVTVSS VL: DIQMTQSPSSLSASVGDRVTITCRASQSVSSAVAWYQQKPGKAPKLLIYAASSLQSGVPSRFSGSRSGTDFTLTISSLQPEDFATYYCQQYCRKSSLFTFGQGTKVEIKR
0.34

Again, but for Delta1-18 (antibody, V domains shown, Tested in the human IgG format) VH: EVQLVESGGGLVQPGGSLRLSCAASGFTVSSSSIHWVRQAPGKGLEWVASIYSSSGYTYYADSVKGRFTISADTSKNTAYLQMNSLRAEDTAVYYCARDPGSYYWYYSGSAYEGYGLDYWGQGTLVTVSS VL: DIQMTQSPSSLSASVGDRVTITCRASQSVSSAVAWYQQKPGKAPKLLIYAASSLQSGVPSRFSGSRSGTDFTLTISSLQPEDFATYYCQQRSRVYSLVTFGQGTKVEIKR
0.15

Again, but for Delta1-17 (antibody, V domains shown, also called anti-Delta1-17; Delta-17) VH: EVQLVESGGGLVQPGGSLRLSCAASGFTVSSSSIHWVRQAPGKGLEWVASIYSSSGYTYYADSVKGRFTISADTSKNTAYLQMNSLRAEDTAVYYCARDPGMYYWYYSGSAYEGYGLDYWGQGTLVTVSS VL: DIQMTQSPSSLSASVGDRVTITCRASQSVSSAVAWYQQKPGKAPKLLIYSASSLYSGVPSRFSGSRSGTDFTLTISSLQPEDFATYYCQQSGDDLITFGQGTKVEIKR
13.7
